src = patent EP4810052A2

The following binders are listed with their measured Transient cell system EC50 (nM), hCRHR1; cAMP assay, transiently transfected CHO-K1 cells values.
- targetDesc: T1, human corticotropin-releasing hormone receptor 1 (human, UniProt P34998 24-415)
- T1 sequence (looked up): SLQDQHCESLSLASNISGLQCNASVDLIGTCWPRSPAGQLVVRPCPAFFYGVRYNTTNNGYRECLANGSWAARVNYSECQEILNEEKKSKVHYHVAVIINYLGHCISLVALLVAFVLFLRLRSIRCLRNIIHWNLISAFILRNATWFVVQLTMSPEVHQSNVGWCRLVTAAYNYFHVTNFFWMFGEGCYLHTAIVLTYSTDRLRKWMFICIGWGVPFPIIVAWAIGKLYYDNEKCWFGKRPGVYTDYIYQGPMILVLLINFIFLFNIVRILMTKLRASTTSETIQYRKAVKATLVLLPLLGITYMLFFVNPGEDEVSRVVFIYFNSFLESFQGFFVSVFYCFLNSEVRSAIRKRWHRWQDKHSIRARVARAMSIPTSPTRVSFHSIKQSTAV
- procedureDetails: cell-based or functional assay
Starred links: 1 amine or outer side, 2 acyl side, 3 side chain; linkers in the order of their positions; H or OH if unused. Non-standard residues stand in square brackets, D forms with d. Groups on a side chain read outwards from the residue. No end group written: not given here. *: point of attachment. C20 diacid = O=C(O)CCCCCCCCCCCCCCCCCCC(=O)*; γGlu = O=C(O)[C@H](CCC(=O)[*:2])N[*:1]; NMeI = CC[C@H](C)[C@H](NC)C(=O)O; Nle = CCCC[C@H](N)C(=O)O; lip = not defined here; AEEA = NCCOCCOCC(=O)O; Aib = CC(C)(N)C(=O)O

binder	measuredValue
[NMeI]VLSLDVPIGLLQILLEQARARAAREQATKNAEILAEV-NH2 (not fully specified (residue 30); printed as [MeI]VLSLDVPIGLLQILLEQARARAAREQAT[K*]NAEILAEV(NH_2); also: lipid and spacer on Lys30 not given here) [SEQ ID NO: 6, [MeI]VLSLDVPIGLLQILLEQARARAAREQAT[K*]NAEILAEV(NH2)]	> 1000 nM
[NMeI]VLSLDVPIGLLQILLEQARARAAREQAK(lip)TN[Aib]EILAEV-NH2 (reading uncertain; also: printed as [MeI]VLSLDVPIGLLQILLEQARARAAREQA[K*]TN[Aib]EILAEV(NH2)) [SEQ ID NO: 16, [MeI]VLSLDVPIGLLQILLEQARARAAREQA[K*]TN[Aib]EILAEV(NH2)]	> 1000 nM
[NMeI]VLSLDVPIGLLQILLSQARARAAREQAK([AEEA-AEEA-γGlu-γGlu-C20 diacid])TN[Aib]EI[Nle]AEV-NH2 (not fully specified; printed as [MeI]VLSLDVPIGLLQILLSQARARAAREQA[K*]TN[Aib]EI[Nle]AEV(NH_2)) [SEQ ID NO: 215, [MeI]VLSLDVPIGLLQILLSQARARAAREQA[K*]TN[Aib]EI[Nle]AEV(NH2)]	826 nM

**Q:** Report Transient cell system EC50 (nM), hCRHR1; cAMP assay, transiently transfected CHO-K1 cells, nothing else, for this binder: IVLSLDVPIGLLQILLEQARARAAREQAK(lip)TNAEILAEV-NH2 (not fully specified; reading uncertain) [SEQ ID NO: 3 (Lipidated UCN2 with X^36 = E; X^40 = E) (reference 1)]
**A:** > 1000 nM

**Q:** Please give measured Transient cell system EC50 (nM), hCRHR1; cAMP assay, transiently transfected CHO-K1 cells of the following entry: PVLSLDVPIGLLQILLSQARARAAREQAK[Aib]NAEI[Nle]AEV-NH2 (not fully specified (residue 29); printed as PVLSLDVPIGLLQILLSQARARAAREQA[K*][Aib]NAEI[Nle]AEV(NH_2); also: lipid and spacer on Lys29 not given here) [SEQ ID NO: 238, PVLSLDVPIGLLQILLSQARARAAREQA[K*][Aib]NAEI[Nle]AEV(NH2)]
**A:** > 5000 nM
